Values were extracted from paper PMC6798786.

Reported Ki values are given for each entry in this list.
target: human 5-HT2AR (Homo sapiens, UniProt P28223); assay: radioligand binding (NIMH PDSP); conditions: recombinant, stably expressed human receptor; clemizole analogues
Sequence (P28223 whole entry): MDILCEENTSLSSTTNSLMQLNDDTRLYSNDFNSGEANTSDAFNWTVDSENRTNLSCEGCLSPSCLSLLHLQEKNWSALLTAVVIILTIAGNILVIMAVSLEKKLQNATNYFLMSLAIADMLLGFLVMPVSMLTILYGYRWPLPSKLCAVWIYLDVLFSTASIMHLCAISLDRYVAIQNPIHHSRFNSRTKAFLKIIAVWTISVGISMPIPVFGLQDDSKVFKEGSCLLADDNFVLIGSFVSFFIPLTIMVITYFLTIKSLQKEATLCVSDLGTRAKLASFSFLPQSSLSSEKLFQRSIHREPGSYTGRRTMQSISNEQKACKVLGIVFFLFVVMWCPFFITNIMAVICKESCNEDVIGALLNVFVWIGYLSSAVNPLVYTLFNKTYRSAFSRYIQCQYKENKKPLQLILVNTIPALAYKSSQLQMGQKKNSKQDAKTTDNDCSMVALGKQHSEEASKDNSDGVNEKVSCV

Some compounds with known Ki results, for comparison:
>>> result("Fc1ccc(Cn2c(CN3CCCC3)nc3ccccc32)cc1")
"15 nM"
>>> result("Clc1ccc(Cn2c(CN3CCOCC3)nc3ccccc32)cc1")
"> 10000 nM"
>>> result("Clc1ccc(Cn2c(CN3CCCCC3)nc3ccccc32)cc1")
"623 nM"
>>> result("CCCn1c(CN2CCCC2)nc2ccccc21.O=CO")
"> 10000 nM"
>>> result("FC1(F)CCN(Cc2nc3ccccc3n2Cc2ccc(Cl)cc2)CC1")
"> 10000 nM"
>>> result("FC1(F)CCC(Cn2c(CN3CCCC3)nc3ccccc32)CC1")
"> 10000 nM"
>>> result("c1ccc(Cn2c(CN3CCCC3)nc3ccccc32)cc1")
"327 nM"
>>> result("Clc1ccc(Cn2c(CN3CCSC3)nc3ccccc32)cc1")
"> 10000 nM"
>>> result("Nc1ccc(Cn2c(CN3CCCC3)nc3ccccc32)cc1")
"> 10000 nM"
>>> result("c1ccc2c(c1)nc(CN1CCCC1)n2CC1CCOCC1")
"> 10000 nM"

Consider the record given below.
Return value of Ki for input CN1CCN(Cc2nc3ccccc3n2Cc2ccc(Cl)cc2)CC1 , no commentary.
316 nM

###

Reported Ki values are given for each entry in this list.
target: human 5-HT2BR (Homo sapiens); test: radioligand binding (NIMH PDSP); details: recombinant, stably expressed human receptor; clemizole analogues; read-out: Ki 5-HT2BR
// return numeric value only (unit: nM, not printed)

Some compounds with known Ki results, for comparison:
>>> numeric_result("Clc1ccc(Cn2c(CN3CCCCC3)nc3ccccc32)cc1 [Compound 22]")
306
>>> numeric_result("Fc1ccc(Cn2c(CN3CCCC3)nc3ccccc32)cc1 [Compound 7]")
46
>>> numeric_result("Nc1ccc(Cn2c(CN3CCCC3)nc3ccccc32)cc1 [Compound 14]")
606
>>> numeric_result("CCCn1c(CN2CCCC2)nc2ccccc21.O=CO [Compound 5]")
219
>>> numeric_result("Clc1ccc(Cn2c(CN3CCSC3)nc3ccccc32)cc1 [Compound 28]")
464
>>> numeric_result("CN1CCN(Cc2nc3ccccc3n2Cc2ccc(Cl)cc2)CC1 [Compound 26]")
20

Return value of Ki for input Clc1ccc(Cn2c(CN3CCOCC3)nc3ccccc32)cc1 [Compound 23] , no commentary.
515

Return value of Ki for input c1ccc(Cn2c(CN3CCCC3)nc3ccccc32)cc1 [Compound 3] , no commentary.
83

###

molecular target: human H1 (Homo sapiens); experiment: radioligand binding (NIMH PDSP); settings: read-out: Ki H1
Sequence (P35367 whole entry): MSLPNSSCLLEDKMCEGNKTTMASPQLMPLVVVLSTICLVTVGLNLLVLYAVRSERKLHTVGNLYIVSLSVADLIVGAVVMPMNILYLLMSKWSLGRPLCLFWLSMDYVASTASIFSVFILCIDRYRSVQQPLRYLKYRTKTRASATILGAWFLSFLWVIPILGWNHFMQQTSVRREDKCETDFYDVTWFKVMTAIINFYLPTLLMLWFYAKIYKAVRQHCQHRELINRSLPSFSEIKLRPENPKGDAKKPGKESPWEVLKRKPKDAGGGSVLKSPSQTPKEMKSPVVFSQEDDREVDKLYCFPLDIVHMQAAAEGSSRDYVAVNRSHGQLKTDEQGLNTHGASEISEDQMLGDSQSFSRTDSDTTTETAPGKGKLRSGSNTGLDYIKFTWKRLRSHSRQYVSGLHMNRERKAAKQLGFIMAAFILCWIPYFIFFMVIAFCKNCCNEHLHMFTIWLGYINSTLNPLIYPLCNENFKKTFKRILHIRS
Reported Ki values are given for each entry in this list.
// return numeric value only (unit: nM, not printed)

>>> numeric_result("CC(C)(C)OC(=O)N1CCN(Cc2nc3ccccc3n2Cc2ccc(Cl)cc2)CC1")
76

Consider the record given below.
Return value of Ki for input Clc1ccc(Cn2ccnc2CN2CCCC2)cc1 , no commentary.
29

###

target: UniProt:P28335; test: radioligand binding (NIMH PDSP); conditions: recombinant, stably expressed human receptor; clemizole analogues
Reported pKi values are given for each entry in this list.
Scale: negative log10 of molar concentration, which is what pKi denotes.

>>> numeric_result("Fc1ccc(Cn2c(CN3CCCC3)nc3ccccc32)cc1")
6.46
>>> numeric_result("c1ccc(Cn2c(CN3CCCC3)nc3ccccc32)cc1")
6.53
>>> numeric_result("CN1CCN(Cc2nc3ccccc3n2Cc2ccc(Cl)cc2)CC1")
6.50
>>> numeric_result("Clc1ccc(Cn2c(CN3CCSC3)nc3ccccc32)cc1")
5.96
>>> numeric_result("Clc1ccc(Cn2c(CN3CCCCC3)nc3ccccc32)cc1")
5.34

Under UniProt:P28335, report pKi for FC1(F)CCN(Cc2nc3ccccc3n2Cc2ccc(Cl)cc2)CC1
5.15

###

Reported pKi values are given for each entry in this list.
target: human 5-HT2CR (Homo sapiens, UniProt P28335); test: radioligand binding (NIMH PDSP)
Sequence (P28335 33-458): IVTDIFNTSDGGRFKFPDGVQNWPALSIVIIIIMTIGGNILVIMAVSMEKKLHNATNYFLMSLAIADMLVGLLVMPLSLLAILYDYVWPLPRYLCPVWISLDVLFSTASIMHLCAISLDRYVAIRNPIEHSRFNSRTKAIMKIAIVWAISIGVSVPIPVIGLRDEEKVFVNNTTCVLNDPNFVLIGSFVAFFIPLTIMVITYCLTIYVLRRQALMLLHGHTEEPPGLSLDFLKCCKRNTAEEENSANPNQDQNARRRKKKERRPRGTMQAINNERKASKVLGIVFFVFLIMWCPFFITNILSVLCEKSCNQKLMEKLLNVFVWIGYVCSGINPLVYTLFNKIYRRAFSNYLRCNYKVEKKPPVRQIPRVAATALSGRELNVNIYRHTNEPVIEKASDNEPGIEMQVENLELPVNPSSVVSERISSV
Scale: negative log10 of molar concentration, which is what pKi denotes.

Some compounds with known pKi results, for comparison:
>>> numeric_result("CCN(CC)Cc1nc2ccccc2n1Cc1ccc(Cl)cc1")
5.85
>>> numeric_result("Clc1ccc(Cn2ccnc2CN2CCCC2)cc1")
6.35
>>> numeric_result("Clc1ccc(Cn2c(CC3CCCC3)nc3ccccc32)cc1")
5.56
>>> numeric_result("Clc1ccc(Cn2c(CN3CCCC3)cc3ccccc32)cc1")
6.61

Under human 5-HT2CR (Homo sapiens, UniProt P28335), report pKi for CC(C)(C)OC(=O)N1CCN(Cc2nc3ccccc3n2Cc2ccc(Cl)cc2)CC1
5.64

###

system: scn1lab mutant zebrafish; test: locomotion (mean swim velocity) seizure-like behaviour assay in scn1lab mutant zebrafish larvae; type: in vivo, Danio rerio; details: Danio rerio, read-out: % change in velocity, individual larva 1 (heat map)
value_kind: change in vivo at 100 µM (%)
// return numeric value only (unit: %, not printed)

>>> numeric_result("Clc1ccc(Cn2c(CN3CCCC3)cc3ccccc32)cc1")
39.3
>>> numeric_result("CC(C)(C)OC(=O)N1CCN(Cc2nc3ccccc3n2Cc2ccc(Cl)cc2)CC1")
-56
>>> numeric_result("FC(F)(F)c1ccc(Cn2c(CN3CCCC3)nc3ccccc32)cc1")
-34.5
>>> numeric_result("O=C(c1nc2ccccc2n1Cc1ccc(Cl)cc1)N1CCCC1")
-68.2
>>> numeric_result("Clc1ccc(Cn2ccnc2CN2CCCC2)cc1")
-13.5
>>> numeric_result("c1ccc2c(c1)nc(CN1CCCC1)n2CC1CCCCC1")
-85.7
>>> numeric_result("CCN(CC)Cc1nc2ccccc2n1Cc1ccc(Cl)cc1")
67.6
>>> numeric_result("c1cn(CC2CCCCC2)c(CN2CCCC2)n1")
17.5
>>> numeric_result("c1ccc2c(c1)nc(CN1CCCC1)n2CC1CCCC1")
17.3

Consider the record given below.
Under scn1lab mutant zebrafish, report change in vivo at 100 µM for Clc1ccc(Cn2c(CC3CCCC3)nc3ccccc32)cc1
-100

###

target: human H1 (Homo sapiens); assay: radioligand binding (NIMH PDSP); conditions: recombinant, stably expressed human receptor; clemizole analogues; read-out: Ki H1
value_kind: pKi
Scale: negative log10 of molar concentration, which is what pKi denotes.

Some molecules with known pKi results, for comparison:
>>> numeric_result("c1ccc2c(c1)nc(CN1CCCC1)n2CC1CCOCC1")
6.06
>>> numeric_result("Clc1ccc(Cn2c(CN3CCCCC3)nc3ccccc32)cc1")
8.07
>>> numeric_result("CCCn1c(CN2CCCC2)nc2ccccc21.O=CO")
6.44

Return value of pKi for input FC1(F)CCN(Cc2nc3ccccc3n2Cc2ccc(Cl)cc2)CC1 , no commentary.
6.35

Return value of pKi for input CN1CCN(Cc2nc3ccccc3n2Cc2ccc(Cl)cc2)CC1 , no commentary.
8.92

Return value of pKi for input FC1(F)CCC(Cn2c(CN3CCCC3)nc3ccccc32)CC1 , no commentary.
6.86

Return value of pKi for input Nc1ccc(Cn2c(CN3CCCC3)nc3ccccc32)cc1 , no commentary.
7.57

Return value of pKi for input Clc1ccc(Cn2c(CN3CCSC3)nc3ccccc32)cc1 , no commentary.
7.36

Return value of pKi for input c1ccc(Cn2c(CN3CCCC3)nc3ccccc32)cc1 , no commentary.
8.32

Return value of pKi for input Clc1ccc(Cn2c(CN3CCOCC3)nc3ccccc32)cc1 , no commentary.
7.47

Return value of pKi for input Fc1ccc(Cn2c(CN3CCCC3)nc3ccccc32)cc1 , no commentary.
9.00

###

Reported pKi values are given for each entry in this list.
target: human 5-HT2BR (Homo sapiens, UniProt P41595); test: radioligand binding (NIMH PDSP); details: recombinant, stably expressed human receptor; clemizole analogues; read-out: Ki 5-HT2BR
Sequence (P41595 whole entry): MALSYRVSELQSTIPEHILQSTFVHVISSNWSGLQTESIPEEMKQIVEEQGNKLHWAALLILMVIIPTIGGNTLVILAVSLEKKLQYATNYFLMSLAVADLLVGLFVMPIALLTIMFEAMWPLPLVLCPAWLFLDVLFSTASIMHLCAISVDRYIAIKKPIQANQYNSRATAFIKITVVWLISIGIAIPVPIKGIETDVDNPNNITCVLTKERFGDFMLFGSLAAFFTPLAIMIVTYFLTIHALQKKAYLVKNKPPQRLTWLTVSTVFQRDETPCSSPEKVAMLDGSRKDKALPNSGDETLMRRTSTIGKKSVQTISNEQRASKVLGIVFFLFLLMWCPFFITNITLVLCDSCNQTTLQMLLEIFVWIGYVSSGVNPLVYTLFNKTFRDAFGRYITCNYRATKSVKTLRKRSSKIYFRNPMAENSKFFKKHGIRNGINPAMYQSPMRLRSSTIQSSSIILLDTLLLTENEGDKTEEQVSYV
pKi: −log10 of the molar value.

Some compounds with known pKi results, for comparison:
>>> result("FC1(F)CCC(Cn2c(CN3CCCC3)nc3ccccc32)CC1")
"< 5.00"
>>> result("FC1(F)CCN(Cc2nc3ccccc3n2Cc2ccc(Cl)cc2)CC1")
"< 5.00"

Return value of pKi for input c1ccc2c(c1)nc(CN1CCCC1)n2CC1CCOCC1 , no commentary.
< 5.00

###

target: UniProt P35367; assay: radioligand binding (NIMH PDSP); conditions: read-out: Ki H1
value_kind: Ki
Kindly write the number and append the unit.

Some molecules with known Ki results, for comparison:
>>> result("Clc1ccc(Cn2c(CN3CCCC3)cc3ccccc32)cc1")
"6.4 nM"
>>> result("CCN(CC)Cc1nc2ccccc2n1Cc1ccc(Cl)cc1")
"3.7 nM"
>>> result("c1ccc2c(c1)nc(CN1CCCC1)n2CC1CCCC1")
"161 nM"

Consider the record given below.
Return value of Ki for input FC(F)(F)c1ccc(Cn2c(CN3CCCC3)nc3ccccc32)cc1 , no commentary.
16 nM
